Listed compounds paired with reported log2 ratio of Biotin-Ahx-Ub-VS probe labelling
Target: UCHL5 (UniProt Q9Y5K5)
Sequence (Q9Y5K5 whole entry, the tested form may be a part): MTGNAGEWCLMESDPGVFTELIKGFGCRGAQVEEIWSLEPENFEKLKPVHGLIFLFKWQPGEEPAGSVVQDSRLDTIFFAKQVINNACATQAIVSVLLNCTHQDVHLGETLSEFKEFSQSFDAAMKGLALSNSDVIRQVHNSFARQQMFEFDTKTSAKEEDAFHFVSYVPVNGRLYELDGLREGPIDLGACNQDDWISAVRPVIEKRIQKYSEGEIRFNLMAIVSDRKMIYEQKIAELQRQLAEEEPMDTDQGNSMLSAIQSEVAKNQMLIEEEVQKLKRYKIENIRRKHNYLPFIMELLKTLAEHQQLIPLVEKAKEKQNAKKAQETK
Experiment: log2 ratio of Biotin-Ahx-Ub-VS probe labelling (fragment/DMSO); higher = less target engagement (more negative = stronger competition), active = hit call of the paper (q ≤ 0.05, log2 ratio ≤ -1)
Conditions: compound concentration: 200 uM; treatment time: 3 h
Answer field: number only, no words.

O=C(CCl)NC1CCCCNC1=O (centres undefined)
-0.137
CCN(Cc1ccc(C#N)cc1F)C(=O)CCl
-0.5
O=C(CCl)N1CCC(OCc2ccccc2F)CC1
-0.00457
Cc1c(C#N)c(NC(=O)CCl)n(Cc2ccco2)c1C
-0.133
Cl.O=C(CCl)NCCN1CCc2ccccc21
-1.03
O=C(CCl)N1CCN2C(=O)CCC2C1 (centres undefined)
-0.0709
Cc1ncsc1CCNC(=O)CCl
-0.131
NC(=O)C1CCCCN1C(=O)CCl (centres undefined)
-0.42

Give its log2 ratio of Biotin-Ahx-Ub-VS probe labelling value. Item: "N#Cc1ccc(Cl)cc1NC(=O)CCl" 0.0193

I'd like to know its log2 ratio of Biotin-Ahx-Ub-VS probe labelling. The compound in question is CC1CN(c2ccc(NC(=O)CCl)cc2)CC(C)O1 (centres undefined) -0.366

Look up log2 ratio of Biotin-Ahx-Ub-VS probe labelling for this compound: "O=C(CCl)Nc1nnc(CC(F)(F)F)o1" -0.204

What value of measured log2 ratio of Biotin-Ahx-Ub-VS probe labelling is listed for "O=C(CCl)N1CCC[C@@H]1c1ccon1" ? -0.401

Please look up its log2 ratio of Biotin-Ahx-Ub-VS probe labelling: "CN(Cc1nc2ccccc2[nH]1)C(=O)CCl.Cl" -0.121
